Tested on: ABUTH
Assay: Post-emergence action against ABUTH
Assay type: in vivo, Abutilon theophrasti
Settings: post-emergence, dosage 80 g/ha, visual assessment about 3 weeks after treatment vs untreated controls
Measured quantity: Post-emergence action against ABUTH (herbicidal action in percent) (%)

{"Smiles string": "CCn1nnnc1NC(=O)c1ccc(C(F)(F)F)c(C(=O)COC)c1Cl", "Endpoint unit": "%", "Result": 90}
{"Smiles string": "CCn1nnnc1NC(=O)c1ccc(Cl)c(C(=O)c2ccc(OC)cc2)c1Cl", "Endpoint unit": "%", "Result": 80}
{"Smiles string": "CCCn1nnnc1NC(=O)c1ccc(S(C)(=O)=O)c(C(=O)C2CC2)c1C", "Endpoint unit": "%", "Result": 80}
{"Smiles string": "Cn1nnnc1NC(=O)c1ccc(C(F)(F)F)c(C(=O)c2cc(F)cc(F)c2)c1Cl", "Endpoint unit": "%", "Result": 80}
{"Smiles string": "CCn1nnnc1NC(=O)c1ccc(Cl)c(C(C)=O)c1Cl", "Endpoint unit": "%", "Result": 90}
{"Smiles string": "Cc1c(C(=O)Nc2nnnn2C)ccc(C(F)(F)F)c1C(=O)CCl", "Endpoint unit": "%", "Result": 90}
{"Smiles string": "CCCn1nnnc1NC(=O)c1ccc(C(F)(F)F)c(C(=O)C2CCCCC2)c1Cl", "Endpoint unit": "%", "Result": 80}
{"Smiles string": "CCn1nnnc1NC(=O)c1ccc(C(F)(F)F)c(C(=O)C2CC2)c1Cl", "Endpoint unit": "%", "Result": 90}
{"Smiles string": "CCn1nnnc1NC(=O)c1ccc(C(F)(F)F)c(C(=O)C2CCCCC2)c1SC", "Endpoint unit": "%", "Result": 90}
{"Smiles string": "CCn1nnnc1NC(=O)c1ccc(C(F)(F)F)c(C(C)=O)c1OC", "Endpoint unit": "%", "Result": 100}
{"Smiles string": "COCC(=O)c1c(C(F)(F)F)ccc(C(=O)Nc2nnnn2C)c1Cl", "Endpoint unit": "%", "Result": 100}
{"Smiles string": "CCn1nnnc1NC(=O)c1ccc(C(F)(F)F)c(C(=O)C2CCCC2)c1Cl", "Endpoint unit": "%", "Result": 90}
{"Smiles string": "CSc1c(C(=O)Nc2nnnn2C)ccc(C(F)(F)F)c1C(=O)C1CCCC1", "Endpoint unit": "%", "Result": 90}
{"Smiles string": "CSc1c(C(=O)Nc2nnnn2C)ccc(C(F)(F)F)c1C(=O)C1CCCCC1", "Endpoint unit": "%", "Result": 90}
{"Smiles string": "CCn1nnnc1NC(=O)c1ccc(SC)c(C(C)=O)c1Cl", "Endpoint unit": "%", "Result": 100}
{"Smiles string": "CCCn1nnnc1NC(=O)c1ccc(C(F)(F)F)c(C(=O)CC)c1C", "Endpoint unit": "%", "Result": 90}
{"Smiles string": "CCn1nnnc1NC(=O)c1ccc(C(F)(F)F)c(C(=O)CCl)c1C", "Endpoint unit": "%", "Result": 90}
{"Smiles string": "CSc1c(C(=O)Nc2nnnn2C)ccc(C(F)(F)F)c1C(=O)C1CCC1", "Endpoint unit": "%", "Result": 100}
{"Smiles string": "CCn1nnnc1NC(=O)c1ccc(C(F)(F)F)c(C(=O)C2CC2)c1C1CC1", "Endpoint unit": "%", "Result": 100}

* * *

Tested on: LOLRI
Assay: Post-emergence action against LOLRI
Format: in vivo, Lolium rigidum
Conditions: Lolium rigidum, 504 h, dosage 80 g/ha, visual assessment about 3 weeks after treatment vs untreated controls, read-out: Post-emergence action against LOLRI (herbicidal action in percent)
Measured quantity: pest or weed control at 80 g/ha (%)

{"Smiles string": "CCn1nnnc1NC(=O)c1ccc(C(F)(F)F)c(C(=O)C2CC2)c1C", "System": "LOLRI", "Result": 100}
{"Smiles string": "Cn1nnnc1NC(=O)c1ccc(C(F)(F)F)c(C(=O)C2CC2)c1C1CC1", "System": "LOLRI", "Result": 90}
{"Smiles string": "CSc1c(C(=O)Nc2nnnn2C)ccc(C(F)F)c1C(=O)C1CC1", "System": "LOLRI", "Result": 100}
{"Smiles string": "CC(=O)c1c(C(F)F)ccc(C(=O)Nc2nnnn2C)c1Cl", "System": "LOLRI", "Result": 90}
{"Smiles string": "CCCC(=O)c1c(C(F)(F)F)ccc(C(=O)Nc2nnnn2C)c1C", "System": "LOLRI", "Result": 80}

* * *

Tested on: STEME
Experiment: Post-emergence action against STEME
Type: in vivo, Stellaria media
Conditions: post-emergence, dosage 80 g/ha

{"Smiles string": "CCn1nnnc1NC(=O)c1ccc(SC)c(C(=O)C2CC2)c1Cl", "System": "STEME", "Post-emergence action against STEME": 100}
{"Smiles string": "Cc1c(C(=O)Nc2nnnn2C)ccc(C(F)(F)F)c1C(=O)CCl", "System": "STEME", "Post-emergence action against STEME": 90}
{"Smiles string": "CCn1nnnc1NC(=O)c1ccc(S(C)(=O)=O)c(C(C)=O)c1Cl", "System": "STEME", "Post-emergence action against STEME": 100}
{"Smiles string": "CCC(=O)c1c(C(F)(F)F)ccc(C(=O)Nc2nnnn2CC)c1C", "System": "STEME", "Post-emergence action against STEME": 100}
{"Smiles string": "CCn1nnnc1NC(=O)c1ccc(S(C)(=O)=O)c(C(=O)C2CC2)c1C", "System": "STEME", "Post-emergence action against STEME": 100}
{"Smiles string": "CCCn1nnnc1NC(=O)c1ccc(C)c(C(=O)C2CC2)c1C", "System": "STEME", "Post-emergence action against STEME": 80}
{"Smiles string": "CCn1nnnc1NC(=O)c1ccc(C(F)(F)F)c(C(=O)C(F)F)c1Cl", "System": "STEME", "Post-emergence action against STEME": 100}
{"Smiles string": "CCn1nnnc1NC(=O)c1ccc(Cl)c(C(=O)C2CC2)c1Cl", "System": "STEME", "Post-emergence action against STEME": 90}
{"Smiles string": "Cn1nnnc1NC(=O)c1ccc(C(F)(F)F)c(C(=O)C2CCC2)c1Cl", "System": "STEME", "Post-emergence action against STEME": 100}
{"Smiles string": "CCCn1nnnc1NC(=O)c1ccc(S(C)(=O)=O)c(C(=O)C2CC2)c1Cl", "System": "STEME", "Post-emergence action against STEME": 100}

* * *

Test system: AVEFA
Test: Post-emergence action against AVEFA
Format: in vivo, Avena fatua
Settings: Avena fatua, 504 h; post-emergence, dosage 80 g/ha, visual assessment about 3 weeks after treatment vs untreated controls; read-out: Post-emergence action against AVEFA (herbicidal action in percent)
pest or weed control at 80 g/ha values, listed per item
Measured quantity: pest or weed control at 80 g/ha

{"Smiles string": "CCn1nnnc1NC(=O)c1ccc(C(F)(F)F)c(C(=O)C2CC2)c1C", "Measured quantity": "pest or weed control at 80 g/ha", "Result": "100%"}
{"Smiles string": "CSc1ccc(C(=O)Nc2nnnn2C)c(Cl)c1C(C)=O", "Measured quantity": "pest or weed control at 80 g/ha", "Result": "90%"}
{"Smiles string": "CSc1c(C(=O)Nc2nnnn2C)ccc(C(F)F)c1C(=O)C1CC1", "Measured quantity": "pest or weed control at 80 g/ha", "Result": "100%"}
{"Smiles string": "Cc1c(C(=O)Nc2nnnn2C)ccc(S(C)(=O)=O)c1C(=O)C1CC1", "Measured quantity": "pest or weed control at 80 g/ha", "Result": "100%"}
{"Smiles string": "Cn1nnnc1NC(=O)c1ccc(C(F)(F)F)c(C(=O)C2CC2)c1C1CC1", "Measured quantity": "pest or weed control at 80 g/ha", "Result": "90%"}
{"Smiles string": "Cn1nnnc1NC(=O)c1ccc(C(F)(F)F)c(C(=O)C2CC2)c1Cl", "Measured quantity": "pest or weed control at 80 g/ha", "Result": "100%"}
{"Smiles string": "Cn1nnnc1NC(=O)c1ccc(Cl)c(C(=O)C2CC2)c1Cl", "Measured quantity": "pest or weed control at 80 g/ha", "Result": "100%"}
{"Smiles string": "CSc1c(C(=O)Nc2nnnn2C)ccc(C(F)(F)F)c1C(C)=O", "Measured quantity": "pest or weed control at 80 g/ha", "Result": "100%"}
{"Smiles string": "CC(=O)c1c(S(C)(=O)=O)ccc(C(=O)Nc2nnnn2C)c1C", "Measured quantity": "pest or weed control at 80 g/ha", "Result": "80%"}
{"Smiles string": "CCCC(=O)c1c(C(F)(F)F)ccc(C(=O)Nc2nnnn2C)c1C", "Measured quantity": "pest or weed control at 80 g/ha", "Result": "90%"}

* * *

System: STEME
Assay: Post-emergence action against STEME
Format: in vivo, Stellaria media
Details: post-emergence, dosage 80 g/ha
Experimental: Seeds of monocotyledonous and dicotyledonous weed and crop plants are laid out in sandy loam soil in wood-fiber pots, covered with soil and cultivated in a greenhouse under good growth conditions. 2 to 3 weeks after sowing, the test plants are treated at the one-leaf stage. […]

{"Smiles string": "COCC(=O)c1c(C(F)(F)F)ccc(C(=O)Nc2nnnn2C)c1Cl", "Post-emergence action against STEME": 100}
{"Smiles string": "CCn1nnnc1NC(=O)c1ccc(C(F)(F)F)c(C(C)=O)c1Br", "Post-emergence action against STEME": 90}
{"Smiles string": "CCn1nnnc1NC(=O)c1ccc(C)c(C(C)=O)c1C", "Post-emergence action against STEME": 80}
{"Smiles string": "CCCn1nnnc1NC(=O)c1ccc(C(F)(F)F)c(C(=O)CC)c1C", "Post-emergence action against STEME": 100}
{"Smiles string": "CCn1nnnc1NC(=O)c1ccc(C(F)(F)F)c(C(C)=O)c1C", "Post-emergence action against STEME": 100}
{"Smiles string": "Cn1nnnc1NC(=O)c1ccc(C(F)(F)F)c(C(=O)C2CCCCC2)c1Cl", "Post-emergence action against STEME": 80}
{"Smiles string": "CCCn1nnnc1NC(=O)c1ccc(C(F)F)c(C(C)=O)c1Cl", "Post-emergence action against STEME": 100}
{"Smiles string": "CCCn1nnnc1NC(=O)c1ccc(I)c(C(C)=O)c1Cl", "Post-emergence action against STEME": 100}
{"Smiles string": "CCCn1nnnc1NC(=O)c1ccc(C(F)(F)F)c(C(=O)C2CCCCC2)c1Cl", "Post-emergence action against STEME": 80}
{"Smiles string": "CCn1nnnc1NC(=O)c1ccc(C)c(C(C)=O)c1Cl", "Post-emergence action against STEME": 100}
{"Smiles string": "CCn1nnnc1NC(=O)c1ccc(C(F)F)c(C(C)=O)c1SC", "Post-emergence action against STEME": 100}
{"Smiles string": "CCCn1nnnc1NC(=O)c1ccc(C)c(C(=O)CC)c1Cl", "Post-emergence action against STEME": 100}
{"Smiles string": "CCn1nnnc1NC(=O)c1ccc(C(F)(F)F)c(C(C)=O)c1OC", "Post-emergence action against STEME": 100}
{"Smiles string": "CCn1nnnc1NC(=O)c1ccc(C(F)(F)F)c(C(=O)COC)c1Cl", "Post-emergence action against STEME": 100}
{"Smiles string": "CCCn1nnnc1NC(=O)c1ccc(C(F)(F)F)c(C(=O)C2CC2)c1OC", "Post-emergence action against STEME": 100}
{"Smiles string": "CCn1nnnc1NC(=O)c1ccc(SC)c(C(C)=O)c1Cl", "Post-emergence action against STEME": 90}
{"Smiles string": "CCCn1nnnc1NC(=O)c1ccc(S(C)(=O)=O)c(C(=O)C2CC2)c1C", "Post-emergence action against STEME": 100}
{"Smiles string": "CCCn1nnnc1NC(=O)c1ccc(S(C)(=O)=O)c(C(C)=O)c1C", "Post-emergence action against STEME": 100}
{"Smiles string": "CCn1nnnc1NC(=O)c1ccc(C(F)(F)F)c(C(=O)C(C)C)c1Cl", "Post-emergence action against STEME": 100}
{"Smiles string": "CCCn1nnnc1NC(=O)c1ccc(C(F)(F)F)c(C(C)=O)c1Br", "Post-emergence action against STEME": 90}
{"Smiles string": "CCn1nnnc1NC(=O)c1ccc(C(F)(F)F)c(C(=O)C2CC2)c1OC", "Post-emergence action against STEME": 100}
{"Smiles string": "CCn1nnnc1NC(=O)c1ccc(C(F)(F)F)c(C(=O)C2CCC2)c1SC", "Post-emergence action against STEME": 100}
{"Smiles string": "CCCn1nnnc1NC(=O)c1ccc(C)c(C(=O)C2CC2)c1Cl", "Post-emergence action against STEME": 100}
{"Smiles string": "CCCn1nnnc1NC(=O)c1ccc(SC)c(C(=O)C2CC2)c1Cl", "Post-emergence action against STEME": 100}
{"Smiles string": "CCn1nnnc1NC(=O)c1ccc(C(F)(F)F)c(C(=O)C(C)(C)C)c1Cl", "Post-emergence action against STEME": 90}
{"Smiles string": "CSc1c(C(=O)Nc2nnnn2C)ccc(C(F)(F)F)c1C(=O)C1CCCC1", "Post-emergence action against STEME": 80}
{"Smiles string": "CCCn1nnnc1NC(=O)c1ccc(C)c(C(C)=O)c1Cl", "Post-emergence action against STEME": 100}
{"Smiles string": "CCn1nnnc1NC(=O)c1ccc(Cl)c(C(=O)C2CCCC2)c1Cl", "Post-emergence action against STEME": 100}
{"Smiles string": "CCn1nnnc1NC(=O)c1ccc(C(F)(F)F)c(C(=O)C(F)(F)F)c1Cl", "Post-emergence action against STEME": 100}
{"Smiles string": "CCn1nnnc1NC(=O)c1ccc(C(F)(F)F)c(C(C)=O)c1SC", "Post-emergence action against STEME": 100}
{"Smiles string": "CCCn1nnnc1NC(=O)c1ccc(C(F)(F)F)c(C(=O)C(C)C)c1Cl", "Post-emergence action against STEME": 90}
{"Smiles string": "CSc1c(C(=O)Nc2nnnn2C)ccc(C(F)(F)F)c1C(=O)C1CCCCC1", "Post-emergence action against STEME": 90}
{"Smiles string": "CCCn1nnnc1NC(=O)c1ccc(C(F)(F)F)c(C(C)=O)c1OC", "Post-emergence action against STEME": 100}
{"Smiles string": "CCn1nnnc1NC(=O)c1ccc(C(F)(F)F)c(C(=O)CCl)c1Cl", "Post-emergence action against STEME": 100}
{"Smiles string": "CCn1nnnc1NC(=O)c1ccc(C(F)F)c(C(=O)C2CC2)c1Cl", "Post-emergence action against STEME": 100}
{"Smiles string": "CCC(=O)c1c(Cl)ccc(C(=O)Nc2nnnn2CC)c1Cl", "Post-emergence action against STEME": 100}
{"Smiles string": "CCCn1nnnc1NC(=O)c1ccc(C(F)(F)F)c(C(=O)C2CC2)c1C", "Post-emergence action against STEME": 100}
{"Smiles string": "CCCn1nnnc1NC(=O)c1ccc(C(F)(F)F)c(C(=O)C2CC2)c1Cl", "Post-emergence action against STEME": 100}
{"Smiles string": "Cn1nnnc1NC(=O)c1ccc(C(F)(F)F)c(C(=O)C2(C)CC2)c1Cl", "Post-emergence action against STEME": 80}
{"Smiles string": "CCn1nnnc1NC(=O)c1ccc(C(F)F)c(C(C)=O)c1Cl", "Post-emergence action against STEME": 100}
